EXPERIMENT: soluble fraction after stress (log2 fold change); higher = more stays soluble; pooled small domains, quantitative proteomics
MEASUREMENT CONTEXT: stress: pH 4
In this section we review reported soluble fraction (log2) values for a set of sequences.
Lab note: jot down the number only; don't add units.

Consider the following illustrative entries.
> print(dat)
                              sequence.code                  readout  observed.measurement
1  HMGHYGQMTRDLIEKAKTYEEGEEKAALVLTIANLMKRHYLTWNRATVENTLIAEQLKEMSEGALTLPEDV  soluble fraction (log2)                -0.962
2  HMKTLKHYFASIAHEFGREEAELMLLSVFKTPFEQRLMLFMKDPALTEAQVQQLDNLVRQRKQGVPLPYIL  soluble fraction (log2)                -0.287
3  HMENSLLSESLAKIYIKTHRYERAYEILSRLSLAVPEKNAYFADQLRFLRKVMLAESFRKQHS  soluble fraction (log2)                  0.22

# next sequence below
For HMQNNITISKEIELRTGPDDTYPTLKKVTAGDNVEMLSKSDTWYEIKTNDSFVGWVPGWSIL the sequence record lists soluble fraction (log2) as -0.656
